# credit: the supplement of paper PMC13380429

# maps each entry to its cell viability
- System: U2OS
- TEST_METHOD_NOTES: cell viability relative to DMSO; higher = less toxic
- REPORTED_CONDITIONS: 72 h; 10000 nM
Counter-ions that a name gives are not always drawn.

MOLECULE	UNIT_SPEC	cell viability
NC(N)=Nc1nc(CSCC/C(N)=N/S(N)(=O)=O)cs1 [Famotidine]	%	97.5
NS(=O)(=O)c1ccc(-n2nc(C(F)(F)F)cc2-c2ccc(Cl)cc2)cc1	%	103
Nc1nc(O)c2[nH]nnc2n1	%	89.2
CCCCCCCCCCC(C)(C)C(=O)Nc1c(OC)cc(OC)cc1OC	%	97.9
CNC(=O)O[C@H]1COc2ccc(N3CCN(C4COC4)CC3)cc2[C@@H]1NC(=O)c1ccc(F)cc1	%	102
O=c1cc(N2CCOCC2)nc2c3ccccc3ccn12	%	95.5
c1ccc2c(-c3cnn4cc(-c5ccc(N6CCNCC6)cc5)cnc34)ccnc2c1	%	-0.1
COc1cc2c(cc1OC)CC(=O)N(CCCN(C)C[C@H]1Cc3cc(OC)c(OC)cc31)CC2	%	101
O=C1c2c(O)cc(O)cc2O[C@H](c2ccc(O)c(O)c2)[C@H]1O	%	89.9
CC(=O)N(c1onc(C)c1C)S(=O)(=O)c1ccc(N)cc1	%	98.7
CC(C)(C)NCC(O)COc1cccc2[nH]c(C#N)cc12 (stereo not given)	%	101
O=[N+]([O-])c1cccc2cn[nH]c12	%	97.9
O=C(CCCl)NCCc1ccccc1	%	103
Cc1nc(-c2ccc(OCC(C)C)c(C#N)c2)sc1C(=O)O	%	106
CCOc1ccc(Cc2cc([C@@H]3O[C@H](SC)[C@@H](O)[C@H](O)[C@H]3O)ccc2Cl)cc1	%	95.4
CC1/C=C/C=C/C=C/C=C/C=C/C=C/C=C/C(OC2O[C@H](C)[C@@H](O)[C@H](N)[C@@H]2O)CC(O)C(C(=O)O)C(O)CC(=O)CC(O)CC(O)CC(O)CC(=O)CCCC(=O)CC(=O)OC1C(C)CC(C)C(O)CC(=O)c1ccc(N)cc1 (stereo not given in full)	%	96.8
COc1cccc2c1C(=O)c1c(O)c3c(c(O)c1C2=O)C[C@@](O)(C(=O)CO)C[C@@H]3O[C@H]1C[C@H](N)[C@@H](O)[C@H](C)O1 [Epirubicin Hydrochloride]	%	3.15
CC1=C(C(=O)OC2CCCCC2)C(c2ccc([N+](=O)[O-])cc2)C2=C(CC(C)(C)CC2=O)N1 (stereo not given)	%	9.6
CO[C@@H]1COCC[C@@H]1N[C@@H]1CC[C@@](C(=O)N2CCc3ncc(C(F)(F)F)cc3C2)(C(C)C)C1	%	103
O=C(NN1C(=O)[C@@H]2[C@@H]3C=C[C@@H]([C@H]4C[C@@H]34)[C@@H]2C1=O)c1ccc(C(F)(F)F)cc1	%	104
COCCc1ccc(OCC(O)CNC(C)C)cc1 (stereo not given)	%	104
CCN(CC)CCOCCOC(=O)C(CC)(CC)c1ccccc1	%	101
CCC1(c2ccc(N)cc2)CCC(=O)NC1=O (stereo not given) [aminoglutethimide]	%	98.6
CN1CCN(CCCCN2C(=O)CN(/N=C/c3ccc(-c4ccc(Cl)cc4)o3)C2=O)CC1 [azimilide]	%	98.5
CC(=O)Nc1ccc(Cc2ccc(NC(C)=O)cc2)cc1	%	103
CN(C)/N=N/c1[nH]cnc1C(N)=O	%	92.7
O=C1Nc2ccccc2C2(CCN(CCc3ccc(C(F)(F)F)cc3)CC2)O1	%	91.2
C#Cc1cnc2nc(O)n(C(CC)CC)c2n1	%	98.5
CCOC1O[C@H]([C@@H](COCc2ccccc2)OCc2ccccc2)[C@H](OCc2ccccc2)[C@H]1O (stereo not given in full) [tribenoside]	%	98
C/C(=C\C(N)C(=O)O)CP(=O)(O)O (stereo not given)	%	104
C[C@]12CCC(=O)C=C1CC[C@@H]1[C@@H]2CC[C@@]2(C)[C@H]1CC[C@]2(O)C(=O)CO	%	98.7
COc1cc2c(cc1Cc1cccc(Cl)c1F)c(=O)c(C(=O)O)cn2[C@H](CO)C(C)C	%	80.3
NC(=O)OCC(COC(N)=O)c1ccccc1 [felbamate]	%	104
C[C@@H](CN)CC(=O)O	%	94.5
NC(=O)c1nc(Nc2ccccc2)sc1NC(=O)C1CCCCC1	%	88.8
